# Test system: T1, DR4G146 (HLA DQB2:01, peptide CLIP) (human)
# T1 construct: extracellular domain
# Measurement notes: MSD ECL; antigen coated; protocol of Example 3;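 note: antibody binding to plate-coated soluble HLA class II antigens carrying peptides fused at the beta-chain N-terminus, detected with a SulfoTag anti-human Kappa secondary antibody for 1 hour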
Quantity name: ECL signal (ECL)
Report as a plain number; the unit ECL is understood.

If you can, please state the reported ECL signal value of DR4B98 (antibody, human IgG2, kappa, V domains shown, also called VH DR4H50 / VL PH9L3) VH: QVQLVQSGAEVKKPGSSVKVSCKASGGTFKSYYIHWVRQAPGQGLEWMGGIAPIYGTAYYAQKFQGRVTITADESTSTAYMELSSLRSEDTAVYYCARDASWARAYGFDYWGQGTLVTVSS VL: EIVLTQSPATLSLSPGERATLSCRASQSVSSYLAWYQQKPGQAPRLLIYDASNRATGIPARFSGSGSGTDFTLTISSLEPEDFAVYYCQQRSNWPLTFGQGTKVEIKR . 2500

The values you see were collected from patent US20180355043A1.
